assayedSystem: Sodium-dependent noradrenaline transporter (Homo sapiens, UniProt P23975)
Sequence (P23975 whole entry): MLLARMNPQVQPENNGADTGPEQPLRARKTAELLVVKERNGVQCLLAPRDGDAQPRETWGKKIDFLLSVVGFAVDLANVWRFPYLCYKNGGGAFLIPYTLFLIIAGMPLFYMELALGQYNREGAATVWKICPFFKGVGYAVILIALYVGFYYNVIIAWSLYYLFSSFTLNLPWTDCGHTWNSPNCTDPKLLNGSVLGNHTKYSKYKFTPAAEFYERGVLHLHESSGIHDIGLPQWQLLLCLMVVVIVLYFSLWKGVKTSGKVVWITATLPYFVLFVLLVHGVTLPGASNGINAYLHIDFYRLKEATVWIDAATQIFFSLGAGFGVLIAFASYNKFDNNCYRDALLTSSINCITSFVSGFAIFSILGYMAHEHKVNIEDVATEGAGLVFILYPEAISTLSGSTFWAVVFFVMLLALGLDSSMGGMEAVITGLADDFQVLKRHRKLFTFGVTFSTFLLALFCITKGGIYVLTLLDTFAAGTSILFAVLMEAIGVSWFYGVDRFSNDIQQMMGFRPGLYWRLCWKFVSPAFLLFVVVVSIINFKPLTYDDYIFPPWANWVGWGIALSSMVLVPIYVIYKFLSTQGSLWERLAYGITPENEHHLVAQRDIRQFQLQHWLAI
protocolDetails: Inhibition of norepinephrine uptake at human NET expressed in HEK cells
readoutType: IC50
Answer with the number, then the unit.

Data request: May I ask what IC50 has been recorded for CNC[C@H]1CSc2ccccc2[C@@H]1Oc1ccccc1C ?
Data returned: 430 nM

Data request: Cool, now CNC[C@@H]1OCc2ccccc2[C@@H]1Oc1ccccc1SC
Data returned: 14 nM

Data request: Cool, now CNC[C@@H]1OCc2ccccc2[C@@H]1Oc1ccccc1F
Data returned: 75 nM

Data request: Cool, now CNC[C@@H]1CSc2ccccc2[C@@H]1Oc1ccccc1Cl
Data returned: 145 nM

Data request: Cool, now CNC[C@H]1CS(=O)(=O)c2ccccc2[C@@H]1Oc1ccccc1C
Data returned: 8000 nM

Data request: Cool, now CNC[C@H]1Cc2ccccc2[C@@H]1Oc1cccc2ccccc12
Data returned: 400 nM

Data request: Cool, now CCOc1ccccc1O[C@H]1c2ccccc2CO[C@@H]1CNC
Data returned: 240 nM

Data request: Cool, now Cc1ccccc1O[C@H]1c2ccccc2OC[C@H]1CN(C)C
Data returned: 700 nM

Data request: Cool, now CNC[C@@H]1Cc2ccccc2[C@@H]1Oc1ccc(C(F)(F)F)cc1
Data returned: 880 nM

Data request: Cool, now CNC[C@@H]1OCc2ccccc2[C@@H]1Oc1ccc(F)cc1C
Data returned: 13 nM

Moving on to another compound below.
Data request: May I ask what IC50 has been recorded for CN(C)C[C@@H]1Cc2ccccc2[C@@H]1Oc1ccc(C(F)(F)F)cc1 ?
Data returned: 4500 nM
